Values were extracted from ChEMBL document CHEMBL4184106.

# Tested on: BT-549
# protocol summary: Cytotoxicity against human BT549 cells assessed as reduction in cell viability by MTT assay
# Format: functional, cell-based
Can you tell me EC50 for the items I'm about to list?

Example entries begin here.
[[record]]
compound = "C=C(c1ccc(C(=O)O)cc1)c1cc2c(cc1C)C(C)(C)CCC2(C)C [BEXAROTENE]"
experimental_system = "BT-549"
endpoint_result = "> 56 µM"

[[record]]
compound = "C=C(c1ccc(C(=O)NCCN(CC)CC)cc1)c1cc2c(cc1C)C(C)(C)CCC2(C)C"
experimental_system = "BT-549"
endpoint_result = "< 10 µM"


Turning now to a further compound:
Req: What measured EC50 is associated with "C=C(c1ccc(C(=O)NCCN2CCCC2)cc1)c1cc2c(cc1C)C(C)(C)CCC2(C)C" on BT-549?
Resp: < 10 µM
